Target: Histone deacetylase 3 (Homo sapiens, UniProt O15379)
Sequence (O15379 whole entry): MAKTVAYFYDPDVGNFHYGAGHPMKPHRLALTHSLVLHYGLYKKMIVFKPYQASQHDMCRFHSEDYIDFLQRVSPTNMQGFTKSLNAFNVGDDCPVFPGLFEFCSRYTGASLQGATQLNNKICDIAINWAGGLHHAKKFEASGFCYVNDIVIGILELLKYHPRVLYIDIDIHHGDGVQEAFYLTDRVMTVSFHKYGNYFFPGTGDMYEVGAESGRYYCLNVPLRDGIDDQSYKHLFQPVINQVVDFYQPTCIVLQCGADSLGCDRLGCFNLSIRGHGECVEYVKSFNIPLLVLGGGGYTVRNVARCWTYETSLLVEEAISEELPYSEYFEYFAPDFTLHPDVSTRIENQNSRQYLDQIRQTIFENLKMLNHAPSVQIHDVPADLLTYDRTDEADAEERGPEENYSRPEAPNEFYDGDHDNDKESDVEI
Test: Inhibition of human recombinant HDAC3
pIC50: −log10 of the molar value.
Experimental Endpoint: pIC50

• O=C(C=C1c2ccccc2-c2ccccc21)NCCCCCC(=O)NO = 8.55

----------
Target: UniProt:Q92769
Sequence (Q92769 whole entry): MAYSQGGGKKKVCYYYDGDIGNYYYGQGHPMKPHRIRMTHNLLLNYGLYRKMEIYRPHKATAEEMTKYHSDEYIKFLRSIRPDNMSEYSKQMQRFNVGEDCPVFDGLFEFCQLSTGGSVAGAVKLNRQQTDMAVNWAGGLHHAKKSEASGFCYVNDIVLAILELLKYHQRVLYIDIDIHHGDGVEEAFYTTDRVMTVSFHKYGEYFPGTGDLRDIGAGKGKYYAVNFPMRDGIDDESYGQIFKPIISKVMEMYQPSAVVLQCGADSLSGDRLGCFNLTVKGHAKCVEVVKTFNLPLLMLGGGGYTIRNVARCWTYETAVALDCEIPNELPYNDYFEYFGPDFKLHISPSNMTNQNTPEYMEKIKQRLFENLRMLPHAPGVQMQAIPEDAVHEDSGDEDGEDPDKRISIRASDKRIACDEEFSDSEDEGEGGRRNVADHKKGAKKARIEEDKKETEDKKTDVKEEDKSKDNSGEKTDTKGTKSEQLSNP
Test: Inhibition of human recombinant HDAC2
pIC50: −log10 of the molar value.
Experimental Endpoint: pIC50

- O=C(C=C1c2ccccc2-c2ccccc21)NCCCCCC(=O)NO: 9.10

----------
Target: Histone deacetylase (Homo sapiens) (UniProt Q13547+O15379+Q9UBN7+Q92769+Q9UQL6+Q8WUI4+Q9BY41+Q96DB2+P56524+Q9UKV0+Q969S8)
Test: Inhibition of HDAC from human HeLa cells at 500 nM
Experimental Endpoint: inhibition

- CN(C)c1ccc(CC(=O)NCCCCCC(=O)NO)cc1: 9%
- O=C(CCCCCNC(=O)C/C=C/c1ccccc1)NO: 53%
- O=C(CCCCCNC(=O)CCCCc1ccccc1)NO: 51%
- O=C(CCCCCNC(=O)Cc1ccc(-c2ccccc2)cc1)NO: 51%
- O=C(CCCCNC(=O)c1ccc2ccccc2c1)NO: 42%
- O=C(CCCCCNC(=O)CCc1ccccc1)NO: 27%
- O=C(CCCCCCC(=O)NCc1ccccc1)NO: 39%
- O=C(CCCCCCC(=O)NCCc1ccccc1)NO: 46%
- O=C(CCCCCNC(=O)CCCc1ccccc1)NO: 19%
